A set of compounds tested on human IRAK4 (Homo sapiens, UniProt Q9NWZ3), with measured pIC50:
pIC50: −log10 of the molar value.
Quantity Measured: pIC50

(I) O=C1C[C@H](Nc2nc(N3CC(CC(=O)N4CCOCC4)C3)c3cnn(-c4cccc(C(F)(F)F)c4)c3n2)CN1
(II) CCC1(O)CN(c2nc(N[C@@H]3CNC(=O)C3)nc3c2cnn3-c2cccc(C(F)(F)F)c2)C1
stdin: // pick larger pIC50 from pair: I vs II Answer = label.
stdout: I
(I: 8.60, II: 8.01)

(A) C[C@]1(O)C[C@@H](Nc2nc(N3CC(N4CCOCC4)C3)c3cnn(-c4cccc(C(F)(F)F)c4)c3n2)C1
(B) CC(C)(O)C1CCN(c2nc(NC3CCS(=O)(=O)C3)nc3c2cnn3-c2cccc(C(F)(F)F)c2)CC1 (single isomer, unassigned; (-))
(C) CN(C)C1CN(c2nc(NC3CC(F)(F)C3)nc3c2cnn3-c2cccc(C(F)(F)F)c2)C1
(D) CC(C)(O)C1CCN(c2nc(NC3CN(S(C)(=O)=O)C3)nc3c2cnn3-c2cccc(C(F)(F)F)c2)CC1
stdin: Rank the 4 compounds: largest pIC50 first, smallest last. Rank the items, then write their labels in that order.
stdout: A, D, B, C

(I) O=C1CN(C2CN(c3nc(N[C@H]4C[C@@H](O)C4)nc4c3cnn4-c3cccc(C(F)(F)F)c3)C2)CCN1
(II) CN1CC[C@H](Nc2nc(N3CC(CS(C)(=O)=O)C3)c3cnn(-c4cccc(C(F)(F)F)c4)c3n2)C1
(III) CC(C)(O)C1CN(c2nc(N[C@H]3C[C@@H](O)C3)nc3c2cnn3-c2cccc(C(F)(F)F)c2)C1
stdin: Rank the items in ascending order with respect to pIC50. // ordering of labels required in reply
stdout: II, III, I

(1) CC(C)(O)CC1CCN(c2nc(N[C@@H]3CNC(=O)C3)nc3c2cnn3-c2cccc(C(F)(F)F)c2)CC1
(2) O=C(CC1CN(c2nc(NC3CCS(=O)(=O)CC3)nc3c2cnn3-c2cccc(C(F)F)c2)C1)N1CCOCC1
stdin: Returns the identifier with the smallest measured pIC50 among 1 and 2 . Give the chosen item's label as your response.
stdout: 1
(1: 8.15, 2: 8.37)

* * *

Quick note: these are IC50 numbers for system: human IRAK4 (Homo sapiens, UniProt Q9NWZ3)
Sequence (Q9NWZ3 whole entry): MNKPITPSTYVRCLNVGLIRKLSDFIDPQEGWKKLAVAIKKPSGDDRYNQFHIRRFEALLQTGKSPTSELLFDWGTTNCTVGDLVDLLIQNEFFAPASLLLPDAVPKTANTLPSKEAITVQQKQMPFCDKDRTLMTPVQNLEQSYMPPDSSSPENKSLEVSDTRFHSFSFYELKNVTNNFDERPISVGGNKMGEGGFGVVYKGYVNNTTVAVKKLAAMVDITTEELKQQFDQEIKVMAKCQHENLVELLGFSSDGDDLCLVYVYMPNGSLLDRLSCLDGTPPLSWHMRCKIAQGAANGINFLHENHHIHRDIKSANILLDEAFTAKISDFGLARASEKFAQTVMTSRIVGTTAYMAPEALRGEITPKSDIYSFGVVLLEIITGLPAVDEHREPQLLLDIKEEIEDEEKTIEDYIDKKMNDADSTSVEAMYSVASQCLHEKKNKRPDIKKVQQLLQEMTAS
Quantity Measured: IC50 (µM)

1. CC(C)(O)C1CCN(c2nc(N[C@H]3CCNC3=O)nc3c2cnn3-c2cccc(C(F)(F)F)c2)CC1 :: 0.0512
2. C[C@]1(O)CCN(c2nc(N[C@H]3C[C@@H](O)C3)nc3c2cnn3-c2cccc(C(F)(F)F)c2)C1 :: 0.0225
3. CC1(N2CCOCC2)CN(c2nc(NC3CCS(=O)(=O)CC3)nc3c2cnn3-c2cccc(C(F)(F)F)c2)C1 :: 0.00909

(I) O=S1(=O)CCC(Nc2nc(N3CCC(O)(C(F)(F)F)C3)c3cnn(-c4cccc(C(F)F)c4)c3n2)CC1 (stereo not shown)
(II) O[C@H]1C[C@H](Nc2nc(N3CC(N4CCOCC4)C3)c3cnn(-c4cccc(C(F)F)c4)c3n2)C1
(III) CS(=O)(=O)[C@H]1C[C@H](Nc2nc(N3C[C@H](O)[C@@H](F)C3)c3cnn(-c4cccc(C(F)F)c4)c3n2)C1
(IV) CS(=O)(=O)[C@H]1C[C@H](Nc2nc(N3CC(F)C3)c3cnn(-c4cccc(C(F)(F)F)c4)c3n2)C1
stdin: Order the records so the highest IC50 appears first and the lowest last. Please list each label once, in the requested order.
stdout: I, IV, II, III
(I: 0.0452 µM, IV: 0.0162 µM, II: 0.00615 µM, III: 0.00282 µM)

* * *

- Protocol Text: Metabolic stability in human liver microsomes
- Recorded Conditions: hepatic in vivo blood clearance calculated with well stirred liver model; 1 µM compound; '(stable)' given beside < 0.01
Quantity Measured: CLblood, human microsomes (mL/min/kg)

1) CS(=O)(=O)[C@H]1C[C@H](Nc2nc(N3CC(N4CCOCC4)C3)c3cnn(-c4cccc(C(F)(F)F)c4)c3n2)C1 :: 1

(A) CN1CC[C@H](Nc2nc(N3CCC(C(C)(C)O)CC3)c3cnn(-c4cccc(C(F)(F)F)c4)c3n2)C1
(B) CS(=O)(=O)N1CC(Nc2nc(N3CCC(C4(N)CC4)CC3)c3cnn(-c4cccc(OC(F)F)c4)c3n2)C1
stdin: // compare: A vs B , metric CLblood, human microsomes, want the smaller Use the label to indicate which entry you chose.
stdout: B
(B: 2.33 mL/min/kg, A: 8.33 mL/min/kg)

* * *

- Protocol Text: Metabolic stability in dog liver microsomes
- Assay type: in vitro ADME
- Recorded Conditions: hepatic in vivo blood clearance calculated with well stirred liver model; 1 µM compound; '(stable)' given beside < 0.01
Quantity Measured: CLblood, dog microsomes (L/h/kg)

1) CS(=O)(=O)[C@H]1C[C@H](Nc2nc(N3CC(N4CCOCC4)C3)c3cnn(-c4cccc(C(F)(F)F)c4)c3n2)C1 :: 0.06
2) O=S1(=O)CCC(Nc2nc(N3CC(N4CCOCC4)C3)c3cnn(-c4cccc(C(F)F)c4)c3n2)CC1 :: 0.07
3) CC(C)(O)C1CCN(c2nc(N[C@H]3CCS(=O)(=O)C3)nc3c2cnn3-c2cccc(C(F)F)c2)CC1 :: 0.46
4) O[C@H]1C[C@@H](Nc2nc(N3CC(N4CCOCC4)C3)c3cnn(-c4cccc(C(F)(F)F)c4)c3n2)C1 :: 0.10

(1) CC(C)(O)C1CCN(c2nc(NC3CCS(=O)(=O)CC3)nc3c2cnn3-c2cccc(C(F)F)c2)CC1
(2) CC(C)(O)C1CCN(c2nc(NC3CN(S(C)(=O)=O)C3)nc3c2cnn3-c2cccc(C(F)F)c2)CC1
stdin: Select the item with the higher value of CLblood, dog microsomes from the options 1 and 2 listed. Reply with the label of the item you choose.
stdout: 2
(2: 0.42 L/h/kg, 1: 0.24 L/h/kg)

* * *

Measurement record for human IRAK4 (Homo sapiens); quantity recorded: pIC50.
pIC50: −log10 of the molar value.
Quantity Measured: pIC50

1) C[C@]1(O)C[C@@H](Nc2nc(N3C[C@@H](O)[C@H](O)C3)c3cnn(-c4cccc(C(F)(F)F)c4)c3n2)C1 [Example I-107] :: 8.09
2) CC(C)(O)C1CCN(c2nc(N[C@H]3C[C@@](C)(C(=O)O)C3)nc3c2cnn3-c2cccc(C(F)(F)F)c2)CC1 [Example I-66] :: 6.86
3) CC(C)(O)C1CCN(c2nc(N[C@@H]3CNC(=O)C3(C)C)nc3c2cnn3-c2cccc(C(F)(F)F)c2)CC1 [Example I-17] :: 6.35
4) CS(=O)(=O)C1CN(c2nc(N[C@H]3C[C@](C)(N)C3)nc3c2cnn3-c2cccc(C(F)(F)F)c2)C1 [Example I-71] :: 7.82
5) O=C1CCCN1C1CN(c2nc(N[C@H]3C[C@H](O)C3)nc3c2cnn3-c2cccc(C(F)(F)F)c2)C1 [Example I-113] :: 8.44

(1) O=S1(=O)C[C@H](Nc2nc(N3CC(N4CCOCC4)C3)c3cnn(-c4cccc(C(F)(F)F)c4)c3n2)[C@@H](O)C1 (relative stereo) [Example I-37]
(2) CCS(=O)(=O)N1CC(Nc2nc(N3CC(N4CCOCC4)C3)c3cnn(-c4cccc(C(F)F)c4)c3n2)C1 [II-32]
stdin: Which one would you say has the larger pIC50 value: 1 , or 2 ? Give the chosen item's label as your response.
stdout: 1
(1: 7.94, 2: 7.25)

(I) O[C@@H]1CN(c2nc(N[C@H]3C[C@@H](O)C3)nc3c2cnn3-c2cccc(C(F)(F)F)c2)C[C@H]1O [Example I-85]
(II) CC(C)(O)C1CCN(c2nc(NC3CCS(=O)(=O)CC3)nc3c2cnn3-c2cccc(C(F)(F)F)c2)CC1 [Example I-5]
stdin: // task: argmin of pIC50 over [ I , II ] Write down the label attached to your selection.
stdout: II

(I) CC(C)(O)C1CCN(c2nc(N[C@H]3C[C@@](O)(C(F)(F)F)C3)nc3c2cnn3-c2cccc(C(F)(F)F)c2)CC1 [Example I-63]
(II) CC1(O)CN(c2nc(N[C@H]3CCN(S(C)(=O)=O)C3)nc3c2cnn3-c2cccc(C(F)(F)F)c2)C1 [Example I-41-2]
(III) CN1CC[C@H](Nc2nc(N3CCC(C(C)(C)O)CC3)c3cnn(-c4cccc(C(F)(F)F)c4)c3n2)C1 [Example I-13-1]
stdin: List the 3 entries from lowest pIC50 to highest pIC50 value. Answer by writing out the labels in the requested order.
stdout: II, I, III
(II: 6.40, I: 7.51, III: 7.88)

(a) CN(C)C1(C)CN(c2nc(NC3CCS(=O)(=O)CC3)nc3c2cnn3-c2cccc(C(F)(F)F)c2)C1 [Example I-39]
(b) O[C@@H]1CN(c2nc(N[C@H]3C[C@@H](O)C3)nc3c2cnn3-c2cccc(C(F)(F)F)c2)C[C@H]1F [Example I-89]
stdin: Thinking about recorded pIC50 values, which is higher, a or b ? Answer with the label corresponding to your selection.
stdout: b
(b: 8.33, a: 7.61)

Each recorded value in this set is attributed to patent EP3800188A1.
